test system: TLK2; settings: concentration: 1 μM, replicates: in singlicate; n = 1;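 further: KINOMEscan kinase panel screen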
Measurement label: %Inh (%)
Dear colleague, please return just the value in %, with no unit written.

Field request: %Inh | item: NS(=O)(=O)c1cccc(N/C=C2\C(=O)Nc3ccc(S(=O)(=O)Cc4c(Cl)cccc4Cl)cc32)c1
0

Quick one: %Inh of CNCc1ccc2nc(NC(=O)c3ccc(C(C)(C)C)cc3)cn2c1 ?
0

Query (molecule): Nc1ncnc2occ(-c3ccc4c(c3)CCN4C(=O)Cc3cc(F)ccc3F)c12 ; field requested: %Inh
0

###

test system: CDC2L2; details: concentration: 1 μM, replicates: in singlicate; n = 1
Lab note: anything with %Inh below 10% is marked satisfied; values at 10% or higher are marked not satisfied.

Below 10% on %Inh? Entry CCn1c(-c2c(N)noc2C)nc2cnccc21
satisfied

I'd appreciate it if you could check whether CNc1cc(-c2ccc3c(N)n[nH]c3c2)nc(N)n1 has %Inh smaller than 10%.
not satisfied

Identify whether the molecule O=C1NC(=O)C(c2ccc(Cl)cc2)=C1Nc1ccc(O)cc1 records %Inh below 10%.
satisfied

Here's an entry: Cc1ccc(NC(=O)c2ccc(Cl)cc2)cc1-c1ccc(C(=O)Nc2ccncc2)cc1 . Is its %Inh below 10%?
not satisfied

Dear colleague, could you confirm whether %Inh of COC(=O)c1cccc(NC(=O)NC2CCN(c3ccnc(Nc4ccc(F)cc4)n3)C2)c1 (stereo not drawn) falls below 10%? Thanks.
satisfied

Determine whether this molecule shows %Inh lower than 10% (ties excluded): CC(C)c1ccc(O)cc1Nc1ccnc2ccc(C(F)(F)F)cc12
satisfied

Hello, is %Inh of the following molecule strictly smaller than 10%? FC(F)(F)c1ccccc1-c1cc(-c2c[nH]nc2-c2ccccn2)ccn1
satisfied

Check if %Inh falls below 10% for COc1cccc(NC(=O)Nc2ccc(C)c(-c3ccc(C(=O)Nc4ccncc4)cc3)c2)c1 .
not satisfied

Check if %Inh falls below 10% for COc1ccc(CSc2nnc(-c3ccc4c(c3)CCO4)o2)cc1 .
satisfied

Please state whether %Inh is below 10% for CC(=O)c1cccc(NC(=O)NC2CCN(c3ccnc(Nc4ccc(F)cc4)n3)C2)c1 (stereo not drawn)
not satisfied

Is 10% strictly greater than the molecule's reported %Inh? molecule: O=C1NC(=O)C(c2ccc(Cl)cc2)=C1Nc1cccc(Cl)c1
satisfied

In the record for O=c1cc(N2CCOCC2)nc2n(Cc3ccccc3F)ccn12 , is %Inh less than 10%?
not satisfied
